- Measurement target: UniProt P48736
- Sequence (P48736 whole entry, looked up): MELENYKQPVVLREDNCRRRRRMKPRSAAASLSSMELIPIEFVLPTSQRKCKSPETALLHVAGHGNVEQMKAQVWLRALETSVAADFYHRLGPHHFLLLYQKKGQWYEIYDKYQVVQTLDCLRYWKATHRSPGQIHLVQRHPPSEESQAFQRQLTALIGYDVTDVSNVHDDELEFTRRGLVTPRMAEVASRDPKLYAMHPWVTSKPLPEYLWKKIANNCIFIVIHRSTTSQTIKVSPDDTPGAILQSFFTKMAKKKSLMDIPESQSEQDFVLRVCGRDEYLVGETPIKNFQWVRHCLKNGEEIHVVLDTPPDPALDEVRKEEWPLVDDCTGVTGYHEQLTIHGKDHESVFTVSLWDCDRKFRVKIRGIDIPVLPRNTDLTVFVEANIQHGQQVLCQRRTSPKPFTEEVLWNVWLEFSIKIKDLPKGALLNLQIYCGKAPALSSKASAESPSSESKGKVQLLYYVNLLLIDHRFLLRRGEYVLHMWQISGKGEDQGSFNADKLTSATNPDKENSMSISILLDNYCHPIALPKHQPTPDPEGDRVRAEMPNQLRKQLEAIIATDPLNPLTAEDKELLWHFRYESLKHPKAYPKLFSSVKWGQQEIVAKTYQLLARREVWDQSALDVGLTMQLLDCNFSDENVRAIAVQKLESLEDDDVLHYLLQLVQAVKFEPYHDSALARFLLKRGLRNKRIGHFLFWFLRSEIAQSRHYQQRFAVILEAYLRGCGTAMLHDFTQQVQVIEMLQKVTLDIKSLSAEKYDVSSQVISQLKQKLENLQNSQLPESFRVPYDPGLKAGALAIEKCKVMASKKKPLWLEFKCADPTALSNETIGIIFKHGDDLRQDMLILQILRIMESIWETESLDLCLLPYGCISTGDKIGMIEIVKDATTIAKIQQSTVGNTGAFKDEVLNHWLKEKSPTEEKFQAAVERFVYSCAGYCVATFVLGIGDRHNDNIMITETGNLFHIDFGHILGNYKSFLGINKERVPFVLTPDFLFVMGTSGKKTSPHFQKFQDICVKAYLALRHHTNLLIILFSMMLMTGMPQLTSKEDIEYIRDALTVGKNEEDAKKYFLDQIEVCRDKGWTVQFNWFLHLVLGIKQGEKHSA
Observable: IC50

Take a look at these entries with their results.
{"Sample smiles": "C[C@H](Nc1nc(N)ncc1C#N)c1cc2cccc(-c3c[nH]nn3)c2c(=O)n1-c1ccccc1", "IC50": "< 0.1 µM"}
{"Sample smiles": "Cc1cnc(-c2cnc(N)nc2N[C@@H](C)c2cc3cccc(Cl)c3c(=O)n2-c2ccccc2)s1", "IC50": "< 0.1 µM"}
{"Sample smiles": "COc1cc(-c2cccc3cc(CNc4nc(N)ncc4C#N)n(-c4ccccc4)c(=O)c23)ccn1", "IC50": "0.1 to 1 µM"}

Input: Please give measured IC50 of the following entry: "Cc1cc(-c2cccc3cc([C@H](C)Nc4nc(N)ncc4C#N)n(-c4cccc(F)c4)c(=O)c23)ccn1"
Output: < 0.1 µM

Input: Please give measured IC50 of the following entry: "COc1cc(-c2cccc3cc([C@H](C)Nc4nc(N)ncc4C(=O)N(C)OC)n(-c4ccccc4)c(=O)c23)ccn1"
Output: < 0.1 µM

Input: Please give measured IC50 of the following entry: "C[C@H](Nc1nc(N)ncc1C#N)c1cc2cccc(-c3cncc(NS(C)(=O)=O)c3)c2c(=O)n1-c1ccccc1"
Output: < 0.1 µM

Input: Please give measured IC50 of the following entry: "C[C@H](Nc1nc(N)ncc1C#N)c1cc2cccc(Cl)c2c(=O)n1-c1c(F)cc(F)cc1F"
Output: < 0.1 µM

Input: Please give measured IC50 of the following entry: "C[C@H](Nc1nc(N)ncc1-c1cccc(NS(=O)(=O)N(C)C)c1)c1cc2cccc(Cl)c2c(=O)n1-c1ccccc1"
Output: < 0.1 µM

====

- Measurement target: UniProt:O00329
- Method summary: Assessment of PIK3CD Kinase Activity
Observable: IC50

{"Sample smiles": "C[C@H](Nc1nc(N)ncc1C#N)c1cc2cccc(Cl)c2c(=O)n1-c1ccc(F)cc1", "IC50": "100 to 1000 nM"}

Input: Please give measured IC50 of the following entry: "COC(=O)c1cccc(-n2c([C@H](C)Nc3nc(N)ncc3C#N)cc3cccc(Cl)c3c2=O)c1"
Output: 100 to 1000 nM

Input: Please give measured IC50 of the following entry: "C[C@H](Nc1nc(N)ncc1-c1ccncc1)c1cc2cccc(Cl)c2c(=O)n1-c1ccccc1"
Output: 100 to 1000 nM

Input: Please give measured IC50 of the following entry: "C[C@H](Nc1nc(N)ncc1-c1cncs1)c1cc2cccc(-c3ccc(=O)n(C)c3)c2c(=O)n1-c1ccccc1"
Output: < 100 nM

Input: Please give measured IC50 of the following entry: "COc1cc(-c2cccc3cc([C@H](C)Nc4nc(N)ncc4-c4ccc(O)c(F)c4)n(-c4ccccc4)c(=O)c23)ccn1"
Output: < 100 nM

Input: Please give measured IC50 of the following entry: "C[C@H](Nc1nc(N)ncc1C#N)c1cc2cccc(Cl)c2c(=O)n1-c1cccnc1"
Output: < 100 nM

Input: Please give measured IC50 of the following entry: "C[C@H](Nc1nc(N)ncc1C#N)c1cc2cccc(-c3ccnnc3)c2c(=O)n1C1CC1"
Output: < 100 nM

Input: Please give measured IC50 of the following entry: "COc1ccc(-c2cccc3cc([C@H](C)Nc4nc(N)ncc4C#N)n(-c4ccccc4)c(=O)c23)cn1"
Output: < 100 nM

Input: Please give measured IC50 of the following entry: "COc1nc(-c2cnc(N)nc2N[C@@H](C)c2cc3cccc(Cl)c3c(=O)n2-c2ccccc2)cs1"
Output: < 100 nM

Input: Please give measured IC50 of the following entry: "C[C@H](Nc1nc(N)ncc1C#N)c1cc2cccc(Cl)c2c(=O)n1-c1cscn1"
Output: < 100 nM

Input: Please give measured IC50 of the following entry: "C[C@H](Nc1ncnc(N)c1[N+](=O)[O-])c1cc2cccc(Cl)c2c(=O)n1-c1ccccc1"
Output: < 100 nM

Input: Please give measured IC50 of the following entry: "C[C@H](Nc1nc(N)ncc1-c1cnn(C)c1)c1cc2cccc(Cl)c2c(=O)n1-c1ccccc1"
Output: 100 to 1000 nM

Input: Please give measured IC50 of the following entry: "C[C@H](Nc1nc(N)ncc1C#N)c1cc2cccc(-c3cncc(N(C)S(C)(=O)=O)c3)c2c(=O)n1-c1ccccc1"
Output: < 100 nM

====

- Measurement target: PIK3CD (Human) (UniProt O00329)
- Sequence (O00329 whole entry, looked up): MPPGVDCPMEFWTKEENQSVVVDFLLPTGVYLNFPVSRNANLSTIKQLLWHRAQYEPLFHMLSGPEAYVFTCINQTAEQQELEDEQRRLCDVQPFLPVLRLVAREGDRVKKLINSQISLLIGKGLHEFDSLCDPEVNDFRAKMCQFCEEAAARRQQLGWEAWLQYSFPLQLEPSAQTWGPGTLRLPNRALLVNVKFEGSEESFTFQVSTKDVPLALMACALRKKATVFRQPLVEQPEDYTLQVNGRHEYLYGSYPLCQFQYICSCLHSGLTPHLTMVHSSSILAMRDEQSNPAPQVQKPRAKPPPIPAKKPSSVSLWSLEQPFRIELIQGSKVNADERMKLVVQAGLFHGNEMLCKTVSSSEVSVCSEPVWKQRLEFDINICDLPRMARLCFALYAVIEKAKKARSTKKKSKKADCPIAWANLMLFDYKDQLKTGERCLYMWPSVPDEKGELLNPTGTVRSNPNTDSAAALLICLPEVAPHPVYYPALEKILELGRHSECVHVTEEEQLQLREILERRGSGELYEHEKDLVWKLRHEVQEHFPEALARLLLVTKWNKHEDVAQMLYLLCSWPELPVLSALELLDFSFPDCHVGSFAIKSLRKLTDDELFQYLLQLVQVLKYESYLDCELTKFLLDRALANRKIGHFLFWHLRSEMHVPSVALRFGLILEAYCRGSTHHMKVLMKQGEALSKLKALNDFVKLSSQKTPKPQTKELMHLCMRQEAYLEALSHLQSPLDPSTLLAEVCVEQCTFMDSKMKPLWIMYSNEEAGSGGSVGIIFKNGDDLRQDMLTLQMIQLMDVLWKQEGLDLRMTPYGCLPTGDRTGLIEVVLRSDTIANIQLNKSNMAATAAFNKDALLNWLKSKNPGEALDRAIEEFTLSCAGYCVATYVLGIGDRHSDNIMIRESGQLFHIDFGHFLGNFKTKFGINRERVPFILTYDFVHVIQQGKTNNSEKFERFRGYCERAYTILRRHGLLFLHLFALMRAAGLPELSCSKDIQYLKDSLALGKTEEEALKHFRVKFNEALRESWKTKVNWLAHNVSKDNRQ
- Method summary: Assessment of PIK3CD Kinase Activity
Examples of compounds with documented IC50 follow.

{"Sample smiles": "CCOc1ncc(-c2cnc(N)nc2N[C@@H](C)c2cc3cccc(Cl)c3c(=O)n2-c2ccccc2)s1", "IC50": "< 100 nM"}
{"Sample smiles": "C[C@H](Nc1ncncc1-c1cccc(S(=O)(=O)N(C)C)c1)c1cc2cccc(Cl)c2c(=O)n1-c1ccccc1", "IC50": "100 to 1000 nM"}
{"Sample smiles": "CC(C)n1c([C@H](C)Nc2ncnc(N)c2C#N)cc2cccc(Cl)c2c1=O", "IC50": "< 100 nM"}

Input: Please give measured IC50 of the following entry: "Cc1csc(-c2cnc(N)nc2N[C@@H](C)c2cc3cccc(Cl)c3c(=O)n2-c2ccccc2)n1"
Output: < 100 nM

Input: Please give measured IC50 of the following entry: "C[C@H](Nc1nc(N)ncc1C#N)c1cc2cccc(-c3cnc4ccccc4c3)c2c(=O)n1-c1cccc(F)c1"
Output: < 100 nM

Input: Please give measured IC50 of the following entry: "Cc1cccc(-c2cccc3cc([C@H](C)Nc4nc(N)ncc4C#N)n(-c4ccccc4)c(=O)c23)c1"
Output: < 100 nM

Input: Please give measured IC50 of the following entry: "C[C@H](Nc1nc(N)ncc1-c1cccc(S(C)(=O)=O)c1)c1cc2cccc(C(F)(F)F)c2c(=O)n1-c1ccccc1"
Output: 100 to 1000 nM

Input: Please give measured IC50 of the following entry: "COc1ccc(-c2cccc3cc([C@H](C)Nc4nc(N)ncc4C#N)n(-c4ccccc4)c(=O)c23)nc1"
Output: < 100 nM

====

- Measurement target: UniProt P42338
- Sequence (P42338 whole entry, looked up): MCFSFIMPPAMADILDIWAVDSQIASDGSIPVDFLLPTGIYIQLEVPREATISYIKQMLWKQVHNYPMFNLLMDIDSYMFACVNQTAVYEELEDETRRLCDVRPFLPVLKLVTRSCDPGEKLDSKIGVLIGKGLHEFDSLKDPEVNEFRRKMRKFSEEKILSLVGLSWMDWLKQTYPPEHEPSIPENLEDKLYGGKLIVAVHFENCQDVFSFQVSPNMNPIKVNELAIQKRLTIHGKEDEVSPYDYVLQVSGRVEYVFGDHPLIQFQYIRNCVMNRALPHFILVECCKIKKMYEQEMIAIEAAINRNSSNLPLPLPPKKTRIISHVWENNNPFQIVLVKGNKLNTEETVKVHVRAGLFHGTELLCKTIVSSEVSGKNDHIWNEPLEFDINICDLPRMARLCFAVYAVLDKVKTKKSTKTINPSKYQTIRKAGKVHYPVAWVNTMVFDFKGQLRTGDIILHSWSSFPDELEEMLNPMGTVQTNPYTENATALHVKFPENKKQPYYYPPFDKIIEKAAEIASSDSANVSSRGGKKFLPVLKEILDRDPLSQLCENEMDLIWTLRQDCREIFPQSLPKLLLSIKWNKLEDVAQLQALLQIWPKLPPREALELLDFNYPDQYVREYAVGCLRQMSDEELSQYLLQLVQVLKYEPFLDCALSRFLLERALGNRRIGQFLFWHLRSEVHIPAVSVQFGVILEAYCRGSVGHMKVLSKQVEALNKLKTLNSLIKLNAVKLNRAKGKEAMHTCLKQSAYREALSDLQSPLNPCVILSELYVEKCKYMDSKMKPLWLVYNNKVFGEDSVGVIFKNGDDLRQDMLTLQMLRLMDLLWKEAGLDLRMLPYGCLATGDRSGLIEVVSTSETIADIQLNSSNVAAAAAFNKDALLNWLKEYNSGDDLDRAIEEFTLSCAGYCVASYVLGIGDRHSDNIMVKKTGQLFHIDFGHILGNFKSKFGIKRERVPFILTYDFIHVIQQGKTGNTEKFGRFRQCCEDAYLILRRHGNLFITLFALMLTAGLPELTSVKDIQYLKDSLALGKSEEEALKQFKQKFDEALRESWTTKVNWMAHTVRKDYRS
- Method summary: Assessment of PIK3CB Kinase Activity
Examples of compounds with documented IC50 follow.

Take a look at these entries with their results.
{"Sample smiles": "COc1cc(-c2cccc3cc(CNc4nc(N)ncc4C#N)n(-c4ccccc4)c(=O)c23)ccn1", "Recorded value": "> 10 µM"}
{"Sample smiles": "COc1cc(-c2cccc3cc([C@H](C)Nc4nc(N)ncc4C(=O)N(C)OC)n(-c4ccccc4)c(=O)c23)ccn1", "Recorded value": "> 10 µM"}
{"Sample smiles": "C[C@H](Nc1nc(N)ncc1-c1cccc(S(=O)(=O)N(C)C)c1)c1cc2cccc(Cl)c2c(=O)n1-c1ccccc1", "Recorded value": "0.1 to 1 µM"}
{"Sample smiles": "C[C@H](Nc1nc(N)ncc1C#N)c1cc2cccc(-c3cncc(OC(F)F)c3)c2c(=O)n1-c1ccccc1", "Recorded value": "> 10 µM"}
{"Sample smiles": "COc1nc(-c2cnc(N)nc2N[C@@H](C)c2cc3cccc(-c4ccc(=O)n(C)c4)c3c(=O)n2-c2ccccc2)cs1", "Recorded value": "> 10 µM"}
{"Sample smiles": "C[C@H](Nc1nc(N)ncc1C#N)c1cc2cccc(Cl)c2c(=O)n1C1CCCC1", "Recorded value": "0.1 to 1 µM"}

Input: Please give measured IC50 of the following entry: "C[C@H](Nc1nc(N)ncc1C(=O)N(C)C)c1cc2cccc(Cl)c2c(=O)n1-c1ccccc1"
Output: 0.1 to 1 µM

Input: Please give measured IC50 of the following entry: "C[C@H](Nc1nc(N)ncc1-c1cccnc1)c1cc2cccc(Cl)c2c(=O)n1-c1ccccc1"
Output: > 10 µM

====

- Measurement target: PIK3CD (Human)
- Method summary: Assessment of PIK3CD Kinase Activity
pIC50: −log10 of the molar value.
Observable: pIC50

Take a look at these entries with their results.
{"Sample smiles": "C[C@H](Nc1nc(N)ncc1C#N)c1cc2cccc(-c3cccc(F)c3)c2c(=O)n1-c1ccccc1", "Recorded value": "> 7.00"}
{"Sample smiles": "C[C@H](Nc1nc(N)ncc1-c1csc(S(C)(=O)=O)n1)c1cc2cccc(Cl)c2c(=O)n1-c1ccccc1", "Recorded value": "> 7.00"}
{"Sample smiles": "COc1ncc(-c2cccc3cc([C@H](C)Nc4ncnc(N)c4C#N)n(-c4ccccc4)c(=O)c23)cn1", "Recorded value": "> 7.00"}
{"Sample smiles": "C[C@H](Nc1nc(N)ncc1-c1cccc(NS(C)(=O)=O)c1)c1cc2cccc(Cl)c2c(=O)n1-c1ccccc1", "Recorded value": "> 7.00"}

Input: Please give measured pIC50 of the following entry: "CC(C)Oc1cncc(-c2cccc3cc([C@H](C)Nc4nc(N)ncc4C#N)n(-c4ccccc4)c(=O)c23)c1"
Output: > 7.00
